Reference for the values: the supplement of paper PMC6555819

The reader will find reported PBM binding z-score values listed item by item below.
Tested on: LXRb:RXRa (NR concentration 270 nM, RXRa partner concentration 90 nM)
assayDetails: PBM binding z-score (relative to random genomic background probes); higher = stronger binding; sequences stand for … in GC…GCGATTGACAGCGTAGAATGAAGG
Reply with the value as a number alone.

Request: Endpoint output: PBM binding z-score of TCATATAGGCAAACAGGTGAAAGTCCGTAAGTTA . Value?
Result: 0.614

Request: Endpoint output: PBM binding z-score of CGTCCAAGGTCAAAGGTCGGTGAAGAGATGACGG . Value?
Result: 5.08

Request: Endpoint output: PBM binding z-score of TCTCGGAGGACACGAAAGGTCAGAGATCGACATC . Value?
Result: 3.32

Request: Endpoint output: PBM binding z-score of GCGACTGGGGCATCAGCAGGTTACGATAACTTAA . Value?
Result: 0.641

Request: Endpoint output: PBM binding z-score of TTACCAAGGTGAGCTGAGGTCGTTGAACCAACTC . Value?
Result: 0.787

Request: Endpoint output: PBM binding z-score of CTCGAAAGGTCGGTAGAGGTGAGTATACGGATAA . Value?
Result: 1.32

Request: Endpoint output: PBM binding z-score of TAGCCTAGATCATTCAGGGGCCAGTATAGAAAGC . Value?
Result: -0.00287

Request: Endpoint output: PBM binding z-score of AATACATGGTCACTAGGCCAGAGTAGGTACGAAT . Value?
Result: -0.301

Request: Endpoint output: PBM binding z-score of CCTGCAAGGTCAATGGTCAGCTAAAGCAGCTCGC . Value?
Result: 3.63

Request: Endpoint output: PBM binding z-score of GCTATTAGTTGACAGGGCAACCGAATGATTCTCG . Value?
Result: -0.0105

Request: Endpoint output: PBM binding z-score of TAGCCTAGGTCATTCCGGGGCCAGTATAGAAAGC . Value?
Result: 2.53

###

Test system: RARa:RXR (NR concentration 270 nM, RXRa partner concentration 90 nM)
assayDetails: PBM binding z-score (relative to random genomic background probes); higher = stronger binding; sequences stand for … in GC…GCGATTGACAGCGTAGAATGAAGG
testReadout: PBM binding z-score
Reply with the value as a number alone.

[[record]]
recordsequence = "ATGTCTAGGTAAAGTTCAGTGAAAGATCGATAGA"
assayedtarget = "RARa:RXR (NR concentration 270 nM, RXRa partner concentration 90 nM)"
measured = 1.13


Request: Endpoint output: PBM binding z-score of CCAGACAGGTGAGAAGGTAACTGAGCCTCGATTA . Value?
Result: 0.14

Request: Endpoint output: PBM binding z-score of TCTCGGAGGACACGTAAGGTCAGAGCTCGACATC . Value?
Result: 3.13

Request: Endpoint output: PBM binding z-score of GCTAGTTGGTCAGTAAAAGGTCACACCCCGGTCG . Value?
Result: 5.06

Request: Endpoint output: PBM binding z-score of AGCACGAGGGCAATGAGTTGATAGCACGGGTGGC . Value?
Result: 0.00535

Request: Endpoint output: PBM binding z-score of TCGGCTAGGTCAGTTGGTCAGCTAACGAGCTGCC . Value?
Result: 0.266

Request: Endpoint output: PBM binding z-score of GCTAGTCGGTCAGTAAAAGGTCACACACCGGTCG . Value?
Result: 6.26

Request: Endpoint output: PBM binding z-score of CATACTGGGCCAAAAAGGTCATTGATGCCGATAA . Value?
Result: 5.06

###

Test system: THRa homodimer (NR concentration 90 nM)
assayDetails: PBM binding z-score (relative to random genomic background probes); higher = stronger binding; sequences stand for … in GC…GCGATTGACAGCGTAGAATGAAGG
The reader will find reported PBM binding z-score values listed item by item below.
Reply with the value as a number alone.

[[record]]
recordsequence = "CCTACTGGGCCACGAAAAGTCATTGATTCAGTGA"
measured = -0.645

[[record]]
recordsequence = "TGAATGAGGTGATAAGATCAGGGAACGTTGCAAA"
measured = 0.185

[[record]]
recordsequence = "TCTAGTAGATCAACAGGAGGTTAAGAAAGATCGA"
measured = -0.505

[[record]]
recordsequence = "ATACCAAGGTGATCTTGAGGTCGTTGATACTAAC"
measured = 2.9

[[record]]
recordsequence = "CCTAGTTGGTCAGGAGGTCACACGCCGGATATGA"
measured = 2.31


Moving on to another sequence below.
Request: For the record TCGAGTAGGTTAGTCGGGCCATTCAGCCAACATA , what value of PBM binding z-score is listed for THRa homodimer (NR concentration 90 nM)?
Result: -0.252

###

System: RXRa homodimer (NR concentration 180 nM)
assayDetails: PBM binding z-score (relative to random genomic background probes); higher = stronger binding; sequences stand for … in GC…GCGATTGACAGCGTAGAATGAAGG
testReadout: PBM binding z-score
Reply with the value as a number alone.

// known answers, use as guide
[[record]]
recordsequence = "ACTATTAGTTGAGAAGAGGGCAACCGATAGGTTG"
measured = 0.599

[[record]]
recordsequence = "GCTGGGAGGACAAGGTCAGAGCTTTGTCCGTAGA"
measured = 2.49

[[record]]
recordsequence = "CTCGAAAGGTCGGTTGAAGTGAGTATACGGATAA"
measured = 1.98


Request: For the record TCTTGTAGATCAGCAGATTAAGAAAGCTGGCCAA , what value of PBM binding z-score is listed for RXRa homodimer (NR concentration 180 nM)?
Result: -0.121

Request: For the record ATACCAAGGTGATCGTGAAGTCGTTGATACTAAC , what value of PBM binding z-score is listed for RXRa homodimer (NR concentration 180 nM)?
Result: 0.357

Request: For the record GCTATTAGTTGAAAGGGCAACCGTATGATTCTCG , what value of PBM binding z-score is listed for RXRa homodimer (NR concentration 180 nM)?
Result: 1.43

Request: For the record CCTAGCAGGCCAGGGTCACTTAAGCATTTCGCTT , what value of PBM binding z-score is listed for RXRa homodimer (NR concentration 180 nM)?
Result: 3.13

Request: For the record AGAATGAGGTTAAGATCCGGGAAACAGAATACAT , what value of PBM binding z-score is listed for RXRa homodimer (NR concentration 180 nM)?
Result: 2.46

Request: For the record CTCGAGAGGTCGTGCTCAGGTGAGTATACCAAAC , what value of PBM binding z-score is listed for RXRa homodimer (NR concentration 180 nM)?
Result: 3.82

Request: For the record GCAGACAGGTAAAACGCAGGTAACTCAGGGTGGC , what value of PBM binding z-score is listed for RXRa homodimer (NR concentration 180 nM)?
Result: 0.223

Request: For the record CCTAGATGGTCAAGGTCACACACGCTATAGGTAC , what value of PBM binding z-score is listed for RXRa homodimer (NR concentration 180 nM)?
Result: 4.74

###

Test system: PPARg homodimer (NR concentration 180 nM)
assayDetails: PBM binding z-score (relative to random genomic background probes); higher = stronger binding; sequences stand for … in GC…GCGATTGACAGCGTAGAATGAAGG
Param threshold (0.6) applies to PBM binding z-score; output true (1) when value >= threshold, false (0) when value < threshold.

Request: Answer whether PBM binding z-score of CCGACAGGGGCATAAGGTTACCATAAGCCAGCCC is greater than or equal to 0.6.
Result: true (1)

Request: Answer whether PBM binding z-score of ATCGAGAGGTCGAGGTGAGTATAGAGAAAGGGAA is greater than or equal to 0.6.
Result: true (1)

Request: Answer whether PBM binding z-score of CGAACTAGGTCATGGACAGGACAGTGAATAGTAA is greater than or equal to 0.6.
Result: true (1)

Request: Answer whether PBM binding z-score of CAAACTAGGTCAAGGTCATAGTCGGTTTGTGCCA is greater than or equal to 0.6.
Result: true (1)

Request: Answer whether PBM binding z-score of CGTCCAAGGTCAATGCTAGGACAGTGAAAGCATT is greater than or equal to 0.6.
Result: true (1)

Request: Answer whether PBM binding z-score of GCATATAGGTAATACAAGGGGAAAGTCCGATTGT is greater than or equal to 0.6.
Result: false (0)

Request: Answer whether PBM binding z-score of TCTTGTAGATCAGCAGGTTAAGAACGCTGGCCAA is greater than or equal to 0.6.
Result: false (0)

Request: Answer whether PBM binding z-score of CGTCCAAGGTCCGCAGGTCAGTGAAAGCGACGTG is greater than or equal to 0.6.
Result: false (0)

Request: Answer whether PBM binding z-score of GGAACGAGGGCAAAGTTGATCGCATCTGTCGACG is greater than or equal to 0.6.
Result: false (0)

Request: Answer whether PBM binding z-score of GGAACGAGGGCAAAATTGATAGCATCTGTCGACG is greater than or equal to 0.6.
Result: false (0)

Request: Answer whether PBM binding z-score of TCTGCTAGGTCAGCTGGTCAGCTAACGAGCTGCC is greater than or equal to 0.6.
Result: false (0)

Request: Answer whether PBM binding z-score of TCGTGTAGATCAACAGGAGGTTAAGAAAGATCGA is greater than or equal to 0.6.
Result: false (0)

Request: Answer whether PBM binding z-score of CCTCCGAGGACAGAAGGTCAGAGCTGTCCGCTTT is greater than or equal to 0.6.
Result: true (1)

Request: Answer whether PBM binding z-score of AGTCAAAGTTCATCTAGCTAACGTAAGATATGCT is greater than or equal to 0.6.
Result: true (1)

Request: Answer whether PBM binding z-score of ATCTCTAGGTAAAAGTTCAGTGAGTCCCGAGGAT is greater than or equal to 0.6.
Result: true (1)

Request: Answer whether PBM binding z-score of GCTTGTAGATTAAGGTTAAGAAAGACTAAGCTAA is greater than or equal to 0.6.
Result: false (0)

Request: Answer whether PBM binding z-score of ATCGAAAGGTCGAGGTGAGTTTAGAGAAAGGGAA is greater than or equal to 0.6.
Result: true (1)

Request: Answer whether PBM binding z-score of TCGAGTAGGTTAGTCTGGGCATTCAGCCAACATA is greater than or equal to 0.6.
Result: false (0)

Request: Answer whether PBM binding z-score of ACTTACGGGTCAACGAGGTTACAGCACGCGTATA is greater than or equal to 0.6.
Result: true (1)

Request: Answer whether PBM binding z-score of ATCTCTAGGTAAAGATAGTTCAGGGAATGCAAAT is greater than or equal to 0.6.
Result: true (1)
